- tested_target: Human immunodeficiency virus type 1 protease (Human immunodeficiency virus 1) (UniProt Q72874)
- assay_procedure: In vitro inhibitory activity against HIV-1 protease at a concentration of 10 uM
Rule: inhibition under 20% gives FALSE, otherwise TRUE.

molecule_smiles=CON[C@H](C(=O)NC(=O)N(Cc1ccccc1)CC(O)CN(Cc1ccccc1)C(=O)NC(=O)[C@@H](NOC)C(C)C)C(C)C assigned_class=TRUE

Lookup: Hi team, for "CC(C)(C)N(Cc1ccccc1)C(=O)NCC(O)CNC(=O)N(Cc1ccccc1)C(C)(C)C" , is the recorded inhibition at or above 20%?
Found: FALSE

Lookup: # check: inhibition of "CC(C)(C)NC(=O)N(Cc1ccccc1O)CC(O)CN(Cc1ccccc1O)C(=O)NC(C)(C)C" is greater than or equal to 20%
Found: FALSE

Lookup: Please check the record "CC(C)(C)OC(=O)NC(=O)N(Cc1ccccc1)CC(O)CN(Cc1ccccc1)C(=O)NC(=O)OC(C)(C)C" and state if its inhibition is at or above 20%.
Found: TRUE

Lookup: # check: inhibition of "CCCNC(=O)N(Cc1ccccc1)CC(O)CN(Cc1ccccc1)C(=O)NCCC" is greater than or equal to 20%
Found: TRUE

Lookup: Does the compound "O=C(Nc1ccccc1)N(Cc1ccccc1)CC(O)CN(Cc1ccccc1)C(=O)Nc1ccccc1" have recorded inhibition that is 20% or more?
Found: FALSE

Lookup: Is it the case that "CC(C)(C)NC(=O)N(Cc1cccc(O)c1O)CC(O)CN(Cc1cccc(O)c1O)C(=O)NC(C)(C)C" has inhibition reaching or exceeding 20%?
Found: TRUE

Lookup: I'd appreciate it if you could say whether "CC(C)[C@H](NC(=O)OCc1ccccc1)C(=O)N[C@@H](Cc1ccccc1)C(O)[C@H](Cc1ccccc1)NC(=O)[C@@H](NC(=O)OCc1ccccc1)C(C)C" has inhibition at least equal to 20%.
Found: FALSE

###

- tested_target: Human immunodeficiency virus type 1 protease (Human immunodeficiency virus 1) (UniProt Q72874)
- assay_procedure: In vitro inhibitory activity against HIV-1 protease at a concentration of 10 uM
Entry flag: Yes if inhibition reaches 20%; No if it does not.

Before answering, review these 5 worked examples.
compound=CC(C)CN(CC(O)CN(CC(C)C)C(=O)NC(C)(C)C)C(=O)NC(C)(C)C assigned_class=Yes
compound=CC(C)(C)NC(=O)NCC(O)CNC(=O)NC(C)(C)C assigned_class=No
compound=CC(C)(C)NC(=O)N(Cc1cccc(O)c1)CC(O)CN(Cc1cccc(O)c1)C(=O)NC(C)(C)C assigned_class=Yes
compound=CC(C)(C)NC(=O)N(Cc1ccccc1)CC(O)CN(Cc1ccccc1)C(=O)NC(C)(C)C assigned_class=Yes
compound=O=C(NCc1ccccc1)N(Cc1ccccc1)CC(O)CN(Cc1ccccc1)C(=O)NCc1ccccc1 assigned_class=No

Lookup: Given the entry "CC(C)(C)NC(=O)N(Cc1ccccc1)C[C@H](O)[C@@H](O)CN(Cc1ccccc1)C(=O)NC(C)(C)C" , answer whether its inhibition meets or surpasses 20%.
Found: Yes

Lookup: # check: inhibition of CON[C@@H](C(=O)NC(=O)N(Cc1ccccc1)CC(O)CN(Cc1ccccc1)C(=O)NC(=O)[C@H](NOC)C(C)C)C(C)C (single isomer, unassigned) is greater than or equal to 20%
Found: No
